TARGET DESC: human TIM3, full length, on cells (human, UniProt Q8TDQ0 22-301)
TEST PROTOCOL: cell-based or functional assay
Would you mind telling me the reported IFNgamma release in MLR, % of rec hu IL-2 control, 1 µg/ml of each entry?
Give bare numbers, in %.

Field: IFNgamma release in MLR, % of rec hu IL-2 control, 1 µg/ml. Fill in for each record below.
1. anti-TIM3 antibody Tim3_0030 (antibody, V domains shown, Mouse monoclonal from hybridoma) VH: QIQLVQSGPELKKPGETVKISCKASGYPFSEYSIHWVKQAPGKGLKWMVYVNTETGQPIVGDDFRGRFVLSLETSASTAYLQINNLKNEDTATYFCGGGGYPAYWGQGTLVTVSA VL: DVLMTQTPLSLPVSLGDQASISCRSSRSIVHSSGNTYLEWYLQKPGQSPKLLIYKVSNRFSGVPDRFSGSGSGTDFTLNISRVEAEDLGVYYCFQDSHVPFTFGTGTKLEIK
2. anti-TIM3 antibody Tim3_0033 (antibody, V domains shown, Mouse monoclonal from hybridoma) VH: QGQMHQSGAELVKPGSSVKLSCKTSGFTFSSSFISWLKQKPGQSLEWIAWIYAATGSTSYNQKFTNKAQLTVDTSSSAAYMQFSSLTTEDSAIYYCARHAGYPHYYAMDYWGQGTSVTVSS VL: DIQMTQSPASLSASVGETVTITCRASENIFSNLAWYQQKQGKSPQLLVYSATNLGDGVPSRFSGSGSGTQFSLKINSLQPEDFGNYYCQHFYKIPFTFGTGTKLEIK
3. anti-TIM3 antibody Tim3_0038 (antibody, V domains shown, Mouse monoclonal from hybridoma) VH: EVQLQQSGAEPLKPGASVKLTCTTSGFNIKDYYIHWVKQRSDQGLEWIGRIDPEDGELIYAPKFQDKATITVDTSSNIAYLQLNSLTSEDTAVYYCSRDHGYVGWFAYWGQGTLVTVSA VL: NVVMTQSPKSMIMSVGQRVTLNCKASENVDTYVSWYQQKPEQSPKLLIYGASNRYTGVPDRFTGSRSATDFTLTISSVQAEDLAVYYCGQSYSYPWTFGGGTKLEFR
4. anti-TIM3 antibody Tim3_0026 (antibody, V domains shown, Mouse monoclonal from hybridoma) VH: QIQLVQSGPELKKPGETVKISCKASGYTFTDYSMHWVKQAPGRGLKWMGYINTETYEPTFGADFKGRFAFSLDTSATTAYLQINSLKTEDTATFFCGGGGYPAYWGQGTVVIVSA VL: DVLMTQTPLSLPVSLGDQASISCRSSRTILHSSGNTYLEWYLQKPGQSPKLLIYKVSNRFSGVPDRFSGSGSGTDFTLNISRVEAEDLGVYYCFQDSHVPFTFGTGTKLEIK

1: 3; 2: 0; 3: 1; 4: 18

Field: IFNgamma release in MLR, % of rec hu IL-2 control, 1 µg/ml. Fill in for each record below.
1. anti-TIM3 antibody Tim3_0021 (antibody, V domains shown, Mouse monoclonal from hybridoma) VH: QVQLQQSGPQLVRPGASVQISCKASGYSFTSYLLHWLKQRPGQGLEWIGMIDPSDSETRLNQKFKDKATLTVDKSSSTAYMQLSSPTSEDSAVYYCARDGYYAWYYFDCWGQGTTLTVSS VL: DIVLTQSPATLSVTPGDRVSLSCRASQSIGNNLHWYQQKSHESPRLLIKYASHSISGIPSKFSGTGSGTDFTLSFNSVETEDFGMYFCQQSNSWPLTFGAGTKLELK
2. anti-TIM3 antibody Tim3_0016 (antibody, V domains shown, Mouse monoclonal from hybridoma; also called clone 0016; Tim3_0016-A488) VH: QVTLKESGPGILQPSQTLRLTCSFSGFSLSTSGMSVGWIRQPSGKGLEWLAHIWLNDDVFFNPALKSRLTISKDTSNNQVFLQIASVVTADTATYYCVRANGYLYALDYWGQGTSVTVSS VL: QIVLTQSPAIMSASPGQKVTITCSASSSVNYTQWYQQKLGSSPKLWIYDAFKLAPGVPARFSGSGTGTSYSLTISSMEAEDAASYFCHQWSSYPWTFGGGTKLEIK

[101, 7]

Record request: IFNgamma release in MLR, % of rec hu IL-2 control, 1 µg/ml value, item anti-TIM3 antibody Tim3_0016 variant (Tim3_0018) (antibody, V domains shown, Mouse monoclonal from hybridoma; also called TIM3-0016 variant (0018); Tim3_0016 variant 0018-A488) VH: QVTLKESGPGILQPSQTLSLTCSFSGFSLSTSGMSVGWIRQPSGKGLEWLAHIWLNDDVFFNPALKRRLTISKDTSNNQVFLQIASVVTADTATYYCVRANGYLYALDYWGQGISVTVSS VL: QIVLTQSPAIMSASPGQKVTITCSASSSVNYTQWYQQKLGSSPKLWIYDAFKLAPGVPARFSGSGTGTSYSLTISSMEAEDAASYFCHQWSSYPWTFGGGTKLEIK 12
